Recorded values, source the Human Domainome abundance scans (Beltran et al. 2025).

B1: Mineralocorticoid receptor, residues 600 to 675; numbered along this chain, P08235 (parent)
chain: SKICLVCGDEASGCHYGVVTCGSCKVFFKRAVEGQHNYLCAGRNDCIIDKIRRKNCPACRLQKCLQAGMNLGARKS

# Variants of: B1
# MEASUREMENT PROTOCOL: abundance fitness (aPCA) (normalised: wild type 0, dead -1); higher = more abundant; growth selection in yeast, the domain comes from the species named
# ASSAY CONTEXT: Homo sapiens
Returns one of Fulfilled or Not fulfilled; Fulfilled when abundance fitness is >= -0.05.

Task: Does `H36M` have a reported abundance fitness of at least -0.05?
Output: Fulfilled

Task: Does `I48H` have a reported abundance fitness of at least -0.05?
Output: Not fulfilled

Task: Does `C14R` have a reported abundance fitness of at least -0.05?
Output: Not fulfilled

Task: Does `Y38V` have a reported abundance fitness of at least -0.05?
Output: Fulfilled

Task: Does `S23I` have a reported abundance fitness of at least -0.05?
Output: Not fulfilled

Task: Does `R43L` have a reported abundance fitness of at least -0.05?
Output: Not fulfilled

Task: Does `Q62E` have a reported abundance fitness of at least -0.05?
Output: Not fulfilled

Task: Does `G17R` have a reported abundance fitness of at least -0.05?
Output: Fulfilled

Task: Does `C64Q` have a reported abundance fitness of at least -0.05?
Output: Not fulfilled

Task: Does `D45I` have a reported abundance fitness of at least -0.05?
Output: Not fulfilled

Task: Does `A31V` have a reported abundance fitness of at least -0.05?
Output: Fulfilled

Task: Does `A31M` have a reported abundance fitness of at least -0.05?
Output: Fulfilled

Task: Does `G72L` have a reported abundance fitness of at least -0.05?
Output: Fulfilled

Task: Does `A31H` have a reported abundance fitness of at least -0.05?
Output: Not fulfilled

Task: Does `E33N` have a reported abundance fitness of at least -0.05?
Output: Not fulfilled

Task: Does `I3M` have a reported abundance fitness of at least -0.05?
Output: Not fulfilled

Task: Does `C46N` have a reported abundance fitness of at least -0.05?
Output: Not fulfilled

Task: Does `F27K` have a reported abundance fitness of at least -0.05?
Output: Not fulfilled

Task: Does `V32F` have a reported abundance fitness of at least -0.05?
Output: Fulfilled

Task: Does `S1F` have a reported abundance fitness of at least -0.05?
Output: Fulfilled

Task: Does `C59R` have a reported abundance fitness of at least -0.05?
Output: Not fulfilled

Task: Does `C59W` have a reported abundance fitness of at least -0.05?
Output: Not fulfilled

Task: Does `M69T` have a reported abundance fitness of at least -0.05?
Output: Not fulfilled

Task: Does `S12A` have a reported abundance fitness of at least -0.05?
Output: Not fulfilled

Task: Does `V26E` have a reported abundance fitness of at least -0.05?
Output: Fulfilled

Task: Does `Q35W` have a reported abundance fitness of at least -0.05?
Output: Not fulfilled

Task: Does `Q35V` have a reported abundance fitness of at least -0.05?
Output: Not fulfilled

Task: Does `G34S` have a reported abundance fitness of at least -0.05?
Output: Not fulfilled

Task: Does `C7S` have a reported abundance fitness of at least -0.05?
Output: Not fulfilled

Task: Does `A41E` have a reported abundance fitness of at least -0.05?
Output: Fulfilled

Task: Does `K29A` have a reported abundance fitness of at least -0.05?
Output: Fulfilled

Task: Does `N37R` have a reported abundance fitness of at least -0.05?
Output: Fulfilled

Task: Does `Q62N` have a reported abundance fitness of at least -0.05?
Output: Fulfilled

Task: Does `I3F` have a reported abundance fitness of at least -0.05?
Output: Fulfilled

Task: Does `C46E` have a reported abundance fitness of at least -0.05?
Output: Not fulfilled

Task: Does `V19H` have a reported abundance fitness of at least -0.05?
Output: Not fulfilled

Task: Does `V26Y` have a reported abundance fitness of at least -0.05?
Output: Fulfilled

Task: Does `K63A` have a reported abundance fitness of at least -0.05?
Output: Not fulfilled

Task: Does `Q66M` have a reported abundance fitness of at least -0.05?
Output: Not fulfilled

Task: Does `S1H` have a reported abundance fitness of at least -0.05?
Output: Fulfilled

Task: Does `N55C` have a reported abundance fitness of at least -0.05?
Output: Fulfilled

Task: Does `A58L` have a reported abundance fitness of at least -0.05?
Output: Not fulfilled

Task: Does `K63M` have a reported abundance fitness of at least -0.05?
Output: Not fulfilled

Task: Does `F27L` have a reported abundance fitness of at least -0.05?
Output: Not fulfilled

Task: Does `G13R` have a reported abundance fitness of at least -0.05?
Output: Fulfilled

Task: Does `R53E` have a reported abundance fitness of at least -0.05?
Output: Fulfilled

Task: Does `E10N` have a reported abundance fitness of at least -0.05?
Output: Fulfilled

Task: Does `T20Q` have a reported abundance fitness of at least -0.05?
Output: Not fulfilled

Task: Does `C24N` have a reported abundance fitness of at least -0.05?
Output: Not fulfilled

Task: Does `N70R` have a reported abundance fitness of at least -0.05?
Output: Fulfilled

Task: Does `C21A` have a reported abundance fitness of at least -0.05?
Output: Not fulfilled

Task: Does `K63N` have a reported abundance fitness of at least -0.05?
Output: Not fulfilled

Task: Does `A58P` have a reported abundance fitness of at least -0.05?
Output: Not fulfilled

Task: Does `C46I` have a reported abundance fitness of at least -0.05?
Output: Not fulfilled

Task: Does `S1D` have a reported abundance fitness of at least -0.05?
Output: Not fulfilled

Task: Does `N44F` have a reported abundance fitness of at least -0.05?
Output: Not fulfilled
